Sourced from ChEMBL document CHEMBL5303573

Assay: The drug is tested on Bacteroides xylanisolvens strain: DSM18836 for biotransformation. The drug concentrations were measured before and after a 12-h incubation by liquid-chromatography-coupled mass spectrometry (LC–MS)
Settings: 2 µM
metric: Bacterial Biotransformation

compound | observed-result
CCOC(=O)[C@H](CCc1ccccc1)N[C@@H](C)C(=O)N1Cc2ccccc2C[C@H]1C(=O)O | Compound metabolized
CCCN(CCC)CCc1cccc2c1CC(=O)N2 | Compound NOT metabolized
CCCc1nc2c(C)cc(-c3nc4ccccc4n3C)cc2n1Cc1ccc(-c2ccccc2C(=O)O)cc1 | Compound metabolized
CCN(CC)CCNC(=O)c1ccc(NC(C)=O)cc1 [ACECAINIDE] | Compound NOT metabolized
COc1cc(C(=O)NCc2ccc(OCCN(C)C)cc2)cc(OC)c1OC [TRIMETHOBENZAMIDE] | Compound NOT metabolized
CCOC(=O)[C@H](CCc1ccccc1)N[C@@H](C)C(=O)N1[C@H](C(=O)O)C[C@H]2CCCC[C@@H]21 | Compound metabolized
COc1cc2nc(N(C)CCCNC(=O)C3CCCO3)nc(N)c2cc1OC (centres undefined) | Compound NOT metabolized
C[C@@H](CO)NC(=O)[C@@H]1C=C2c3cccc4[nH]cc(c34)C[C@H]2N(C)C1.O=C(O)/C=C\C(=O)O [ERGONOVINE MALEATE] | Compound metabolized
CC(C)C[C@H]1C(=O)N2CCC[C@H]2[C@]2(O)O[C@](NC(=O)[C@@H]3C=C4c5cccc6[nH]c(Br)c(c56)C[C@H]4N(C)C3)(C(C)C)C(=O)N12.CS(=O)(=O)O [BROMOCRIPTINE MESYLATE] | Compound metabolized
OC(c1cc(C(F)(F)F)nc2c(C(F)(F)F)cccc12)C1CCCCN1 (centres undefined) | Compound NOT metabolized
CC(CCc1ccccc1)NCC(O)c1ccc(O)c(C(N)=O)c1 (centres undefined) | Compound NOT metabolized
C[C@@H](c1ncncc1F)[C@](O)(Cn1cncn1)c1ccc(F)cc1F | Compound metabolized
CC(CN(C)C)CN1c2ccccc2CCc2ccccc21.O=C(O)/C=C\C(=O)O (centres undefined) [TRIMIPRAMINE MALEATE] | Compound NOT metabolized
Cc1ccc(-c2cc(C(F)(F)F)nn2-c2ccc(S(N)(=O)=O)cc2)cc1 | Compound NOT metabolized
CN(C/C=C/C#CC(C)(C)C)Cc1cccc2ccccc12 | Compound NOT metabolized
O=C1CC2(CCCC2)CC(=O)N1CCCCN1CCN(c2ncccn2)CC1 | Compound NOT metabolized
CC(Oc1c(Cl)cccc1Cl)C1=NCCN1 (centres undefined) | Compound NOT metabolized
CCN(C(C)=O)c1cccc(-c2ccnc3c(C#N)cnn23)c1 | Compound metabolized
CCOc1ccccc1OCCN[C@H](C)Cc1ccc(OC)c(S(N)(=O)=O)c1.Cl [TAMSULOSIN HYDROCHLORIDE] | Compound NOT metabolized
COC(=O)[C@H](c1ccccc1Cl)N1CCc2sccc2C1.O=S(=O)(O)O [CLOPIDOGREL BISULFATE] | Compound metabolized
OCCN1CCN(CCCN2c3ccccc3Sc3ccc(C(F)(F)F)cc32)CC1 | Compound metabolized
C#C[C@]1(OC(C)=O)CC[C@H]2[C@@H]3CCC4=C[C@@H](OC(C)=O)CC[C@@H]4[C@H]3CC[C@@]21C [ETHYNODIOL DIACETATE] | Compound NOT metabolized
COc1ccccc1N1CCN(CC(O)COc2cccc3ccccc23)CC1 (centres undefined) | Compound NOT metabolized
O=C(NCc1ccccc1)OCCO [BURAMATE] | Compound NOT metabolized
CC(C)(C)N.CCC[C@H](N[C@@H](C)C(=O)N1[C@H](C(=O)O)C[C@@H]2CCCC[C@@H]21)C(=O)OCC | Compound NOT metabolized
CC(C)NCC(O)c1ccc(NS(C)(=O)=O)cc1 (centres undefined) | Compound NOT metabolized
Cc1cn([C@H]2C[C@H](N=[N+]=[N-])[C@@H](CO)O2)c(=O)[nH]c1=O | Compound metabolized
Cc1ccnc2c1NC(=O)c1cccnc1N2C1CC1 | Compound NOT metabolized
CC(=O)OCC(CCn1cnc2cnc(N)nc21)COC(C)=O | Compound metabolized
CCc1oc2ccccc2c1C(=O)c1cc(Br)c(O)c(Br)c1 | Compound NOT metabolized
COC(=O)C(c1ccccc1)C1CCCCN1 (centres undefined) [METHYLPHENIDATE] | Compound NOT metabolized
c1ccc2[nH]c(-c3cscn3)nc2c1 | Compound NOT metabolized
Nc1nc2ccc(OC(F)(F)F)cc2s1 | Compound metabolized
CC1OC(OC2C(O)CC(OC3C(O)CC(OC4CCC5(C)C(CCC6C5CCC5(C)C(C7=CC(=O)OC7)CCC65O)C4)OC3C)OC2C)CC(O)C1O (centres undefined) | Compound metabolized
